# Tested on: Gli-SUFU luciferase reporter cells, luminescence
# Protocol text: analogs blocking Gli reporter signaling – cell-based, luciferase luminescence, set 1, SAR follow-up (AID 651836)
Active and inactive are the calls of the source. How the calls were made is not given here.
The reply should be one of these categories: active, inactive

>>> group_label("O=C(Nc1cc(N2CCCCC2)ncn1)c1cccs1")
"inactive"
>>> group_label("CCN(CC)c1cc(NC(=O)c2ccccc2)ncn1")
"inactive"
>>> group_label("CCN(CC)c1cc(NC(=O)c2cc(OC)cc(OC)c2)ncn1")
"inactive"

input: What did the test return for O=C(Nc1cc(N2CCCCC2)ncn1)c1ccc(C(F)(F)F)cc1 ?
output: inactive

input: Give the logged outcome of this assay for the following compound: O=C(Nc1cc(N2CCSCC2)ncn1)c1ccccc1
output: inactive

input: Which outcome was assigned to CCOc1ccc(-c2nc(CSCC(=O)NC3CC3)c(C)o2)cc1 in this test?
output: active

input: Per the assay record, what outcome was assigned to Cc1nc(NC(=O)c2ccccc2)cc(N2CCCCC2)n1 ?
output: inactive

---

# Tested on: Gli-SUFU luciferase reporter cells, luminescence
# Protocol text: analogs blocking Gli reporter signaling – cell-based, luciferase luminescence, set 1, SAR follow-up (AID 651836)
Activity calls are given as the source filed them. No rule for the calls is given here.
compounds and their reported IC50

>>> result("O=C(Nc1cc(N2CCCCC2)ncn1)c1ccccc1F")
"0.176 µM"
>>> result("O=C(Nc1cc(N2CCCC2)ncn1)c1ccccc1")
"> 11.7 µM (inactive)"
>>> result("O=C(Nc1cc(N2CCNCC2)ncn1)c1ccccc1")
"> 11.7 µM (inactive)"
>>> result("O=C(Nc1cc(NCC2CCCO2)ncn1)c1ccccc1 (stereo not drawn)")
"> 11.7 µM (inactive)"
>>> result("O=C(Nc1cc(N2CCOCC2)ncn1)c1ccccc1")
"> 11.7 µM (inactive)"

input: Give reported IC50 for O=C(Nc1cc(N2CCCCC2)ncn1)c1ccc(Cl)cc1 (Gli-SUFU luciferase reporter cells, luminescence)
output: > 11.7 µM (inactive)

input: Return reported IC50 for target or system Gli-SUFU luciferase reporter cells, luminescence, item CCCCNc1cc(NC(=O)c2ccccc2)ncn1 .
output: > 11.7 µM (inactive)

input: Send back Gli-SUFU luciferase reporter cells, luminescence IC50 of O=C(Nc1cc(N2CCCCC2)ncn1)c1ccco1 only.
output: > 11.7 µM (inactive)

---

# Test system: Gli-SUFU luciferase reporter cells, luminescence
# Protocol text: analogs blocking Gli reporter signaling – cell-based, luciferase luminescence, set 1, SAR follow-up (AID 651836)
Calls of active or inactive are those of the source. How the calls were made is not given here.
// classify into yes for active, no for inactive

# count of solved cases: 4
>>> group_label("COc1cc(OC)cc(C(=O)Nc2cc(N(C)C)ncn2)c1")
"no"
>>> group_label("O=C(Nc1cc(N2CCCCC2)ncn1)c1ccccc1C(F)(F)F")
"no"
>>> group_label("CC(C)CNc1cc(NC(=O)c2ccccc2)ncn1")
"no"
>>> group_label("CC1CCN(c2cc(NC(=O)c3ccccc3)ncn2)CC1")
"yes"

Alright, here's another molecule for you.
input: Name the outcome recorded for N#Cc1cccc(C(=O)Nc2cc(N3CCCCC3)ncn2)c1 in the assay.
output: no
